- METHOD: Plasma pharmacokinetics of BIA 10-2474 and metabolites
- Assay type: in vivo, human
- STATED_CONDITIONS: both, human, plasma, oral, 100 mg, t1/2, single dose 100 mg
REPORTED_METRIC: half-life (h)
Answers are plain numbers, in h.

Prompt: Give the measured half-life of CN(C(=O)n1cnc(-c2ccc[n+]([O-])c2)c1)C1CCCCC1 .
Completion: 9.13

---

- METHOD: Plasma pharmacokinetics of BIA 10-2474 and metabolites
- Assay type: in vivo, human
- STATED_CONDITIONS: both, human, plasma, oral, 40 mg, tmax, single dose 40 mg
REPORTED_METRIC: Tmax (h)
Numbers only, in h.

Prompt: Give the measured Tmax of CN(C(=O)n1cnc(-c2ccc[n+]([O-])c2)c1)C1CCCCC1 [BIA 10-2474] .
Completion: 2
